All values here come from patent US7476666B2.

IC95 values by entry
System: acute HIV infection of T-lymphoid cells
Experimental Protocol: Inhibition of acute HIV infection of T-lymphoid cells (spread assay)
Type: cell-based
Condition Set: Human immunodeficiency virus 1
Metric Name: IC95

INSERT INTO assay_data (molecule, assay_value) VALUES
  ('Cn1c(=O)c2c(O)c(C(=O)NCc3ccc(F)cc3)nn2c2ccccc21', '≤ 10 µM'),
  ('CN1CC(c2cccc(C#N)c2)n2nc(C(=O)NCc3ccc(F)cc3)c(O)c2C1=O (centres unmarked)', '≤ 10 µM'),
  ('CN1CCn2nc(C(=O)N3CCCC3c3ccccc3)c(O)c2C1=O (centres unmarked)', '> 10 µM'),
  ('CN1CC(c2ccccc2)n2nc(C(=O)NCc3ccc(F)cc3)c(O)c2C1=O (centres unmarked)', '≤ 10 µM'),
  ('CN(C)CCN(Cc1ccccc1)C(=O)c1nn2c(c1O)C(=O)N(C)CC2', '> 10 µM'),
  ('CN(C)C(=O)c1cc(F)ccc1CNC(=O)c1nn2c(c1O)C(=O)N(C)C[C@H]2c1ccccc1', '≤ 10 µM'),
  ('O=C(c1nn2c(c1O)C(=O)N(Cc1ccc(F)cc1)CC2)N1CCOCC1', '> 10 µM'),
  ('CNC(=O)c1cc(F)ccc1CNC(=O)c1nn2c(c1O)C(=O)N(C)C[C@@H]2c1ccccc1', '≤ 10 µM');

###

Tested on: acute HIV infection of T-lymphoid cells
Experimental Protocol: Inhibition of acute HIV infection of T-lymphoid cells (spread assay)
Format: cell-based
Condition Set: Human immunodeficiency virus 1
Metric Name: IC95

INSERT INTO measurements (compound, metric_name, assay_value) VALUES
  ('CN1C[C@H](c2ccccc2)n2nc(C(=O)NCc3ccc(F)cc3C(N)=O)c(O)c2C1=O [Example 42]', 'IC95', '≤ 10 µM'),
  ('CN1CC(c2cccnc2)n2nc(C(=O)NCc3ccc(F)cc3)c(O)c2C1=O (stereo not shown) [Example 31]', 'IC95', '≤ 10 µM'),
  ('COC(=O)c1nn2c(c1O)C(=O)N(Cc1ccc(F)cc1)CCC2 [Example 30]', 'IC95', '≤ 10 µM'),
  ('CN(Cc1ccc2nccnc2c1)C(=O)c1nn2c(c1O)C(=O)N(C)CC2 [Example 17]', 'IC95', '> 10 µM');

###

Tested on: acute HIV infection of T-lymphoid cells
Experimental Protocol: Inhibition of acute HIV infection of T-lymphoid cells (spread assay)
Format: cell-based
Condition Set: Human immunodeficiency virus 1
Metric Name: IC95

INSERT INTO measurements (molecule, assay_value) VALUES
  ('Cc1cn(C)c(=O)c2c(O)c(C(=O)NCc3ccc(F)cc3)nn12', '≤ 10 µM'),
  ('CCNC(=O)c1cc(F)ccc1CNC(=O)c1nn2c(c1O)C(=O)N(C)C[C@@H]2c1ccccc1', '≤ 10 µM'),
  ('CNC(=O)c1cc(F)ccc1CNC(=O)c1nn2c(c1O)C(=O)N(C)C[C@H]2c1ccccc1', '≤ 10 µM'),
  ('CN1CCn2nc(C(=O)N3CCc4ccccc4C3)c(O)c2C1=O', '> 10 µM'),
  ('CNC(=O)c1cc(F)ccc1CNC(=O)c1nn2c(c1O)C(=O)N(C)CC2C(C)C (stereo not drawn)', '≤ 10 µM'),
  ('CN1C[C@@H](c2ccccc2)n2nc(C(=O)NCc3ccc(F)cc3C(=O)NC3CC3)c(O)c2C1=O', '≤ 10 µM'),
  ('O=C(NCc1ccc(Cl)c(Cl)c1)c1nn2c(c1O)C(=O)N(CC1CC1)CC2', '≤ 10 µM'),
  ('COC(=O)c1nn2c(c1O)C(=O)N(Cc1ccc(F)cc1)CC2', '> 10 µM'),
  ('CN1CCn2nc(C(=O)N(CCO)Cc3ccccc3)c(O)c2C1=O', '> 10 µM'),
  ('CNC(=O)c1nn2c(c1O)C(=O)N(Cc1ccc(F)cc1)CC2c1ccccc1 (stereo not drawn)', '≤ 10 µM'),
  ('CC1Cn2nc(C(=O)NCc3ccc(F)cc3)c(O)c2C(=O)N1C (stereo not drawn)', '≤ 10 µM'),
  ('CN1CC(c2cccc(Br)c2)n2nc(C(=O)NCc3ccc(F)cc3)c(O)c2C1=O (stereo not drawn)', '≤ 10 µM'),
  ('O=C(NCc1ccc(Cl)c(Cl)c1)c1nn2c(c1O)C(=O)N(CCN1CCOCC1)CC2', '≤ 10 µM'),
  ('CCCCNC(=O)c1nn2c(c1O)C(=O)N(Cc1ccc(F)cc1)CC2', '≤ 10 µM'),
  ('CCNC(=O)c1cc(F)ccc1CNC(=O)c1nn2c(c1O)C(=O)N(C)C[C@H]2c1ccccc1', '≤ 10 µM'),
  ('O=C(c1nn2c(c1O)C(=O)N(Cc1ccc(F)cc1)CC2)N1CCC1', '≤ 10 µM'),
  ('O=C(NCc1ccc(Cl)c(Cl)c1)c1nn2c(c1O)C(=O)N(CC(=O)N1CCOCC1)CC2', '≤ 10 µM'),
  ('O=C(NCCN1CCOCC1)c1nn2c(c1O)C(=O)N(Cc1ccc(F)cc1)CC2', '≤ 10 µM');

###

Target Of Assay: recombinant integrase (HIV integrase) (Human immunodeficiency virus type 1 group M subtype B)
Construct: Strand Transfer Catalyzed by Recombinant Integrase
Experimental Protocol: HIV integrase assay: strand transfer catalyzed by recombinant integrase
Condition Set: assay per WO 02/30930, read-out: IC50, inhibition of strand transfer activity of integrase
pIC50: −log10 of the molar value.
Metric Name: pIC50

INSERT INTO measurements (compound, assay_value) VALUES
  ('CN1CCn2nc(C(=O)N3CCCC3c3ccccc3)c(O)c2C1=O (stereo not drawn)', '< 5.00'),
  ('CN(C)CCN(Cc1ccccc1)C(=O)c1nn2c(c1O)C(=O)N(C)CC2', '< 5.00'),
  ('CN1CCn2nc(C(=O)N3CCc4ccccc4C3)c(O)c2C1=O', '< 5.00');
